The origin of these recorded values is the supplement of paper PMC10307832.

test system: H3255; test: relative viability (nuclei count vs DMSO), 5 days (fraction); higher = more cells survive; conditions: first compound 0.8 µM
Labelling: relative viability reported below 0.8 becomes Criterion met; at or above becomes Criterion not met.

molecule | assignedLabel
Oc1nc(-c2ccc(C(F)(F)F)cc2)nc2c1CSCC2 [XAV939] + C[C@]1(O)C[C@@H](c2nc(-c3ccc4ccc(-c5ccccc5)nc4c3)c3c(N)nccn32)C1 [Linsitinib] (partner 1 µM) | Criterion not met

API: query returns whether the molecule falls strictly under 0.8 in relative viability. Query: C=C1C(=O)O[C@@H](CCCCCCCC)[C@@H]1C(=O)O [C-75] + NC(=O)Nc1cc(-c2cccc(F)c2)sc1C(=O)N[C@H]1CCCNC1 [AZD7762] (partner 0.2 µM)
Criterion met

API: query returns whether the molecule falls strictly under 0.8 in relative viability. Query: Oc1nc(-c2ccc(C(F)(F)F)cc2)nc2c1CSCC2 [XAV939] + CS(=O)(=O)N1CCN(Cc2cc3nc(-c4cccc5[nH]ncc45)nc(N4CCOCC4)c3s2)CC1 [Pictilisib] (partner 1 µM)
Criterion met

API: query returns whether the molecule falls strictly under 0.8 in relative viability. Query: C=C1C(=O)O[C@@H](CCCCCCCC)[C@@H]1C(=O)O [C-75] + C[C@]1(O)C[C@@H](c2nc(-c3ccc4ccc(-c5ccccc5)nc4c3)c3c(N)nccn32)C1 [Linsitinib] (partner 1 µM)
Criterion not met

====

Give relative viability for every item shown.
tested on: HARA; assay: relative viability (nuclei count vs DMSO), 5 days (fraction); higher = more cells survive; conditions: first compound 0.1 µM
Give bare numbers.

Worked cases, relative viability given:
compound | relative viability
NC(=O)Nc1cc(-c2cccc(F)c2)sc1C(=O)N[C@H]1CCCNC1 [AZD7762] + C[C@@H](Oc1cc(-c2cnn(C3CCNCC3)c2)cnc1N)c1c(Cl)ccc(F)c1Cl [Crizotinib] (partner 1 µM) | 0.894
NC(=O)Nc1cc(-c2cccc(F)c2)sc1C(=O)N[C@H]1CCCNC1 [AZD7762] + CCNC(=O)c1noc(-c2cc(C(C)C)c(O)cc2O)c1-c1ccc(CN2CCOCC2)cc1 [Luminespib] (partner 0.01 µM) | 0.604
NC(=O)Nc1cc(-c2cccc(F)c2)sc1C(=O)N[C@H]1CCCNC1 [AZD7762] + CC1(C)CCC(c2ccc(Cl)cc2)=C(CN2CCN(c3ccc(C(=O)NS(=O)(=O)c4ccc(N[C@H](CCN5CCOCC5)CSc5ccccc5)c(S(=O)(=O)C(F)(F)F)c4)cc3)CC2)C1 [Navitoclax] (partner 0.5 µM) | 1.2
NC(=O)Nc1cc(-c2cccc(F)c2)sc1C(=O)N[C@H]1CCCNC1 [AZD7762] + C[C@]1(O)C[C@@H](c2nc(-c3ccc4ccc(-c5ccccc5)nc4c3)c3c(N)nccn32)C1 [Linsitinib] (partner 1 µM) | 0.847
NC(=O)Nc1cc(-c2cccc(F)c2)sc1C(=O)N[C@H]1CCCNC1 [AZD7762] + Cc1nc(Nc2ncc(C(=O)Nc3c(C)cccc3Cl)s2)cc(N2CCN(CCO)CC2)n1 [Dasatinib] (partner 0.075 µM) | 0.275

We now examine a further compound.
Return relative viability for the following compound: NC(=O)Nc1cc(-c2cccc(F)c2)sc1C(=O)N[C@H]1CCCNC1 [AZD7762] + COc1cc2c(Oc3ccc(NC(=O)C4(C(=O)Nc5ccc(F)cc5)CC4)cc3F)ccnc2cc1OCCCN1CCOCC1 [Foretinib] (partner 0.25 µM)
0.91
